Hey, just so you know, these numbers are from patent US9029409B2.

Biological target: recombinant human MMP13 catalytic domain (CD) (Homo sapiens, UniProt P45452)
Construct: catalytic domain (CD) construct encompassing residues 20-274 (SWISS-PROT P45452)
Experiment: MMP-13 catalytic domain FRET enzyme assay
Conditions: recombinant human MMP-13 catalytic domain
Description: A recombinant human MMP13 catalytic domain (CD) construct encompassing residues 20-274 (SWISS-PROT P45452) was generated by synthetic gene methods and bacterial expression. […] The assay is based on the cleavage of this substrate by MMP-13, resulting in decrease of FRET between the donor-acceptor pair and subsequent fluorescence enhancement. […] Fluorescence was measured on a Victor V5 plate reader (Perkin Elmer, Turku, Finland). […]
metric: IC50

COc1ccc(CNC(=O)c2cc(C3=NOC(c4ccc(OC)cc4)C3)nc(C)n2)cc1 (stereo not drawn)    10 to 100 nM
COc1ccc(CNC(=O)c2cc(C3=NO[C@@H]([C@H]4CO[C@H](CO)CO4)C3)nc(C)n2)cc1    > 1000 nM
COc1ccc(CNC(=O)c2cc(C3=NOC(c4ccc(N(C)C)cc4)C3)nc(C)n2)cc1 (stereo not drawn)    100 to 1000 nM
COc1cc(CNC(=O)c2cc(C3=NOC(C4CCN(C(C)=O)CC4)C3)nc(C)n2)ccc1F (stereo not drawn)    10 to 100 nM
COc1cc(CNC(=O)c2cc(C3=NOC(c4ccc(S(C)(=O)=O)cn4)C3)nc(C)n2)ccc1F (stereo not drawn)    < 10 nM
COc1cc(CNC(=O)c2cc(C3=NO[C@H]([C@H]4CO[C@H](CNC(=O)C(C)(C)O)CO4)C3)nc(C)n2)ccc1F    10 to 100 nM
Cc1nc(C(=O)NCc2ccc(F)cc2)cc(C2=NO[C@H]([C@H]3CO[C@H](CO)CO3)C2)n1    10 to 100 nM
COc1cc(CNC(=O)c2cc(C3=NOC(C(=O)N4CCOCC4)C3)nc(C)n2)ccc1F (stereo not drawn)    > 1000 nM
COc1cc(CNC(=O)c2cc(C3=NOC(C4CCN(S(C)(=O)=O)CC4)C3)nc(C)n2)ccc1F (stereo not drawn)    < 10 nM
COc1cc(CNC(=O)c2cc(C3=NOC([C@H]4CC[C@H](CNC(=O)CC#N)CC4)C3)nc(C)n2)ccc1F (stereo partly drawn)    < 10 nM

// for each molecule below, give its IC50
1. COc1cc(CNC(=O)c2cc(C3=NOC(c4ccn(C5CC5)c(=O)c4)C3)nc(C)n2)ccc1F (stereo not drawn)
2. Cc1nc(C(=O)NCc2ccc(F)c(F)c2)cc(C2=NOC(C3CCN(S(C)(=O)=O)CC3)C2)n1 (stereo not drawn)
3. CNC(=O)Cn1ccc(C2CC(c3cc(C(=O)NCc4ccc(F)c(OC)c4)nc(C)n3)=NO2)cc1=O (stereo not drawn)
4. COc1cc(CNC(=O)c2cc(C3=NOC(c4cc(-c5nc(C)no5)nn4C)C3)nc(C)n2)ccc1F (stereo not drawn)

[out]
10 to 100 nM
10 to 100 nM
10 to 100 nM
10 to 100 nM

[in] Which value of IC50 has been reported for COc1cc(CNC(=O)c2cc(C3=NO[C@H]([C@H]4CO[C@H](CC#N)CO4)C3)nc(C)n2)ccc1F in the records?
[out] < 10 nM
